Consider the following molecules and their measured IC50 readings.
target: Bifunctional dihydrofolate reductase-thymidylate synthase (Cryptosporidium parvum); assay: DHFR Inhibition Assay; details: pH 7; 25 °C
Sequence (Q27552 whole entry): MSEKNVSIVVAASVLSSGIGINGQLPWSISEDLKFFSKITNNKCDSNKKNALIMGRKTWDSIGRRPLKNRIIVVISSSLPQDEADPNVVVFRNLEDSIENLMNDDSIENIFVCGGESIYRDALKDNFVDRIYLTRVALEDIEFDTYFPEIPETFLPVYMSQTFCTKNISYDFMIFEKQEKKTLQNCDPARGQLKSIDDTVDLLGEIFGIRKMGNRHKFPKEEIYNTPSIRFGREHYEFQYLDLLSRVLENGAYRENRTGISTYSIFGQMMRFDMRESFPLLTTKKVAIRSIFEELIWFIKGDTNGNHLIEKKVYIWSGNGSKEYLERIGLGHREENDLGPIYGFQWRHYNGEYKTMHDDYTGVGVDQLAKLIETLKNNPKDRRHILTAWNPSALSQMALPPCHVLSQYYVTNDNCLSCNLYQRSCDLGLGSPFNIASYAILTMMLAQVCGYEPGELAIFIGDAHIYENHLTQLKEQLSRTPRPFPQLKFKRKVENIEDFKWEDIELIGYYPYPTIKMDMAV
value.type: IC50 (nM)

molecule=COc1cc(-c2ccccc2)cc([C@@H](C)C#Cc2c(C)nc(N)nc2N)c1 value_type=IC50 number=1.1
molecule=COc1cc(-c2ccccc2)cc([C@H](C)C#Cc2c(C)nc(N)nc2N)c1 value_type=IC50 number=30
molecule="COc1cc(C(C)C#Cc2c(C)nc(N)nc2N)ccc1-c1ccccc1C (stereo unspecified)" value_type=IC50 number=36
molecule="COc1cc(-c2c(C(C)C)cccc2C(C)C)cc(C(C)C#Cc2c(C)nc(N)nc2N)c1 (stereo unspecified)" value_type=IC50 number=10
molecule="COc1cc(C(C)C#Cc2c(C)nc(N)nc2N)ccc1-c1ccccc1 (stereo unspecified)" value_type=IC50 number=19
molecule="COc1cc(C(C)C#Cc2c(C)nc(N)nc2N)ccc1-c1c(C)cccc1C (stereo unspecified)" value_type=IC50 number=7.4
